Target: T1, porcine pancreatic elastase (porcine, UniProt P00772 27-266)
T1 construct: substrate AAApNA
T1 sequence (P00772 27-266 limits assumed): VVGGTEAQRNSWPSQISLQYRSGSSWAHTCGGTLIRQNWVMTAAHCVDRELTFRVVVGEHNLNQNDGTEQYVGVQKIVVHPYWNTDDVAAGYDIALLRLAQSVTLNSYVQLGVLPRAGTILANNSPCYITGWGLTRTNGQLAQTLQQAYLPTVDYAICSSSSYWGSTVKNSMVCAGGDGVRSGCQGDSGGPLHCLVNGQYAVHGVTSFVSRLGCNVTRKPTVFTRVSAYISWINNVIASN
Assay: elastase inhibition, Ki=IC50/(1+S/Km)
Bridge positions count the residues as written; N and C are the ends. Square brackets hold non-standard residues; d marks the D form. Ends that are not written are not given here. Hyp = O=C(O)[C@@H]1C[C@@H](O)CN1
propertyMeasured: pKi
Answers are plain numbers, as −log10 of the molar value.

Answered cases to consult:
{"binder": "LCTLSIPPQCY (disulfide 2-10 (inferred), disulfide bond between the two Cys) [EC2]", "observedValue": 6.04}
{"binder": "ICTASIP[Hyp]ICQ (disulfide 2-10 (inferred), disulfide bond between the two Cys) [EC48]", "observedValue": 6.80}
{"binder": "QGADTPPVGGLCTASIPPQCY (disulfide 12-20 (inferred), disulfide bond between the two Cys) [EC49]", "observedValue": 6.55}
{"binder": "ICTASIPPICQ (disulfide 2-10 (inferred), disulfide bond between the two Cys) [EC23]", "observedValue": 7.15}
{"binder": "FCTASIPPICQ (disulfide 2-10 (inferred), disulfide bond between the two Cys) [EC24]", "observedValue": 6.19}

Alright, here's another binder for you.
response.value for ICTASIPPQCQ (disulfide 2-10 (inferred), disulfide bond between the two Cys) [EC19] (field: pKi) = 6.48
